Assay: Base-mediated elimination of HBr from 4-bromophenethyl bromide: deprotonation kinetics and protonation vs alkylation
Details: deprotonation of 4-bromophenethyl bromide, 25 °C
Quantity: half-life (h) (25 °C)

Compound	Quantity	Cmp	Numeric Value
C1COCCOCCOCCOCCOCCOCCO1.FC(F)(F)c1cc(CNCc2cc(C(F)(F)F)cc(C(F)(F)F)c2)cc(C(F)(F)F)c1	half-life (h) (25 °C)	>	5000
C1COCCOCCOCCOCCOCCOCCOCCO1.FC(F)(F)c1cc(CNCc2cc(C(F)(F)F)cc(C(F)(F)F)c2)cc(C(F)(F)F)c1	half-life (h) (25 °C)	=	176
C1CCC2=NCCCN2CC1 [DBU, 1,8-diazabicyclo(5.4.0)undec-7-ene, reference compound]	half-life (h) (25 °C)	=	635
C1COCCOCCOCCOCCOCCOCCOCCO1.CC(C)(C)c1cc(CNCc2cc(C(C)(C)C)cc(C(C)(C)C)c2)cc(C(C)(C)C)c1	half-life (h) (25 °C)	>	5000
C1COCCOCCOCCOCCOCCOCCO1.Cc1cc(C)cc(CNCc2cc(C)cc(C)c2)c1	half-life (h) (25 °C)	=	0.15
CN(C)P(=NC(C)(C)C)(N(C)C)N(C)C [P1-^tBu, reference compound]	half-life (h) (25 °C)	=	419
